- system-tested: b-Raf(V600E) (Homo sapiens, UniProt P15056, V600E)
- Sequence (P15056 whole entry V600E): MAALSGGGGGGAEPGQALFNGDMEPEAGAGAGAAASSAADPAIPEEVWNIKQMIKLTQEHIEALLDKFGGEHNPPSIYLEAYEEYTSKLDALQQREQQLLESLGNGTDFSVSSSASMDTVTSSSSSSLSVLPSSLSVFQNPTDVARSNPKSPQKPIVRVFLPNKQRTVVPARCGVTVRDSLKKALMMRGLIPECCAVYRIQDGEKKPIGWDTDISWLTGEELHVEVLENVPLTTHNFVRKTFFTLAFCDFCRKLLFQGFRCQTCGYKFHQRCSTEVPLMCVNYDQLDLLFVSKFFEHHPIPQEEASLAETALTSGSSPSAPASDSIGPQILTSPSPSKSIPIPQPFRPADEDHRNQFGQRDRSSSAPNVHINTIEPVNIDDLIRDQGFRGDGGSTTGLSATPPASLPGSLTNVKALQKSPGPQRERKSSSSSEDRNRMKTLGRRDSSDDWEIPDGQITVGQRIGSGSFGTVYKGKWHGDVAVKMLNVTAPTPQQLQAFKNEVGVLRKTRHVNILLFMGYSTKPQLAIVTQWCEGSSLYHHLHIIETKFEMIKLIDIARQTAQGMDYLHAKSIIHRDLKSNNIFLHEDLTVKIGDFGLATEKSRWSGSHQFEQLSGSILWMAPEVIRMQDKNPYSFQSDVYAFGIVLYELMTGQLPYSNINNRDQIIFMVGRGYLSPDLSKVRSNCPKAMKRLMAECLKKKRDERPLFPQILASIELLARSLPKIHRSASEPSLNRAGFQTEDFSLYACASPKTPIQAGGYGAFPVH
- assay-explanation: Raf/Mek Amplified Luminescence Proximity Homogeneous Assay (Alpha Screen)
- run-parameters: b-Raf(V600E) approximately 4 pM; biotinylated Mek, kinase dead approximately 10 nM; ATP 10 μM; pre-incubation 60 minutes; reaction 3 hours at room temperature; read-out: mut-bRaf IC50
- Method: Raf/Mek Amplified Luminescence Proximity Homogeneous Assay […] The Raf kinase activity reaction was started by the addition of 10 μL per well of 2×ATP diluted in assay buffer. […] A lid was placed on top of the plate and incubated for 1 hour at room temperature, then the luminescence was read on a PerkinElmer Envision instrument. […]
assay-endpoint: IC50 (nM)

Take a look at these entries with their results.
CCCS(=O)(=O)Nc1cc(Cl)cc(-c2nc(C3CC3)sc2-c2ccnc(N)n2)c1Cl [Example 50]    0.056
CS(=O)(=O)Nc1cc(Cl)cc(-c2nc(C3CC3)sc2-c2ccnc(N)n2)c1Cl [Example 53]    0.45
COC(=O)N[C@@H](C)CNc1nccc(-c2sc(C(C)(C)C)nc2-c2cccc(NS(C)(=O)=O)c2Cl)n1 [Example 25]    0.32
CCCS(=O)(=O)Nc1cccc(-c2nc(C3CC3)sc2-c2ccnc(N)n2)c1F [Example 41]    11
CS(=O)(=O)Nc1cc(Cl)cc(-c2nc(C3CC3)oc2-c2ccnc(N)n2)c1F [Example 22]    3.3

I. COC(=O)N[C@@H](C)CNc1nccc(-c2sc(C(C)(C)C)nc2-c2cc(Cl)cc(NS(C)(=O)=O)c2Cl)n1 [Example 49]
II. COCC(=O)N[C@@H](C)CNc1nccc(-c2oc(-c3ccc(F)cc3)nc2-c2cc(C)cc(NS(C)(=O)=O)c2Cl)n1 [Example 42]
Between I and II , whose measured IC50 reads higher? Write down the label of the entry you select.
II
(II: 3.1 nM, I: 0.4 nM)

a. CCCS(=O)(=O)Nc1cc(Cl)cc(-c2nc(C3CC3)oc2-c2ccnc(NC[C@H](C)NC(=O)OC)n2)c1F [Example 64]
b. CS(=O)(=O)Nc1cccc(-c2nc(C3CC3)oc2-c2ccnc(N)n2)c1Cl [Example 45]
Pick one: a or b . Which one has the lower reported IC50? Write down the label of the entry you select.
a
